The reported measurements were obtained from patent US7582653B2.

// values below are reported melting point
Could you give me the number in °C? Just the number is fine.

Use the examples below as a reference point.
molecule="CS(=O)(=O)c1ccc(C(=O)c2cccc3ccccc23)cc1 [Example 2]" u=°C test_value=150
molecule="CS(=O)(=O)c1ccc(C(=O)c2ccc3ccccc3c2)cc1 [Example 8]" u=°C test_value=160
molecule="CS(=O)(=O)c1ccc(C(O)c2ccc3ccccc3c2)cc1 (centres unmarked) [Example 9]" u=°C test_value=100

What value of measured melting point is listed for CS(=O)(=O)c1ccc(C(O)c2cccc3ccccc23)cc1 (centres unmarked) [Example 4] ? 160

What value of measured melting point is listed for CSc1ccc(C(O)c2cccc3ccccc23)cc1 (centres unmarked) [Example 3] ? 80
